- System: Pyrenophora teres
- testProtocol: In vivo test on Pyrenophora teres (barley net blotch)
- experimentalContext: dose of 500 ppm; barley plants; grading 12 days after contamination
protection values by entry
Provide only the numeric value, understood in %.

// query Which protection value belongs to CC(C)CCn1cc(-c2ccncc2)c(-c2ccc(Cl)s2)n1 ?
// result 100

// query Further, for CCC(C)n1cc(-c2ccnc(N)n2)c(-c2ccc(Cl)s2)n1 (stereo not drawn) ?
// result 95

// query Further, for CCC(C)C(=O)Nc1cc(-c2cn(C(C)C)nc2-c2ccc(Cl)s2)ccn1 (stereo not drawn) ?
// result 95

// query Further, for CCC(=O)Nc1cc(-c2c(-c3ccc(Cl)s3)nn(C(C)C)c2C)ccn1 ?
// result 90

// query Further, for CCn1cc(-c2ccnc(NC(=O)c3ccsc3)c2)c(-c2ccc(Cl)s2)n1 ?
// result 90

// query Further, for CC(=O)N(C(C)=O)c1cc(-c2cn(C)nc2-c2ccc(Cl)s2)ccn1 ?
// result 70

// query Further, for COCn1cc(-c2ccncc2)c(-c2ccc(Cl)s2)n1 ?
// result 86

// query Further, for CCn1cc(-c2ccncc2)c(-c2ccc(Cl)s2)n1 ?
// result 95

// query Further, for CC(C)CC(=O)Nc1cc(-c2cn(C(C)C)nc2-c2ccc(Cl)s2)ccn1 ?
// result 100
